meta.source: patent US8642774B2

# system-tested: human recombinant mGluR5 (Homo sapiens)
# Construct: expressed in transfected cells; host or cells: HEK 293 cell line, cultured with tetracycline, hygromycin and geneticin; tetracycline is withdrawn 3-7 days before the assay
# experiment-summary: positive modulation of mGluR5, calcium based FLIPR assay
# Assay type: cell-based
# stated-conditions: EC50 of the modulation; HEK 293 cell line expressing human recombinant mGluR5; peak height of Ca fluorescence signal after glutamate at approx. 5% basal stimulation; read-out: EC50
pEC50: −log10 of the molar value.
Each record here notes measured pEC50.

# molecule, pEC50
data = [
    ("Cc1cc(-c2nc(C3CCCC(C)C3)n(CC(=O)N3CCc4nc(N)sc4CC3)n2)ccc1F (centres unmarked) [Example 7.03.095.]", 6.21),
    ("O=C(Cn1nc(-c2ccc(F)cc2)nc1-c1ccc(F)cc1)N1CCN(c2nccc3occc23)CC1 [Example 07.03.137.]", 6.47),
    ("CCC(C)c1nc(-c2ccc(F)c(C)c2)nn1CC(=O)N1CCc2nc(C)sc2CC1 (centres unmarked) [Example 7.03.086.]", 6.42),
    ("N#Cc1ccc(Cl)cc1NC1CCN(C(=O)Cn2nc(-c3ccc(F)cc3)nc2-c2ccc(F)cc2)CC1 [Example 7.02.24.]", 6.25),
    ("CC(C)c1ncc2c(n1)CCN(C(=O)Cn1nc(-c3ccc(F)cc3)nc1-c1ccc(F)cc1)C2 [Example 7.02.32.]", 6.33),
]

---

# system-tested: human recombinant mGluR5 (Homo sapiens, UniProt P41594)
# Construct: expressed in transfected cells; host or cells: HEK 293 cell line, cultured with tetracycline, hygromycin and geneticin; tetracycline is withdrawn 3-7 days before the assay
# Sequence (P41594 21-1212): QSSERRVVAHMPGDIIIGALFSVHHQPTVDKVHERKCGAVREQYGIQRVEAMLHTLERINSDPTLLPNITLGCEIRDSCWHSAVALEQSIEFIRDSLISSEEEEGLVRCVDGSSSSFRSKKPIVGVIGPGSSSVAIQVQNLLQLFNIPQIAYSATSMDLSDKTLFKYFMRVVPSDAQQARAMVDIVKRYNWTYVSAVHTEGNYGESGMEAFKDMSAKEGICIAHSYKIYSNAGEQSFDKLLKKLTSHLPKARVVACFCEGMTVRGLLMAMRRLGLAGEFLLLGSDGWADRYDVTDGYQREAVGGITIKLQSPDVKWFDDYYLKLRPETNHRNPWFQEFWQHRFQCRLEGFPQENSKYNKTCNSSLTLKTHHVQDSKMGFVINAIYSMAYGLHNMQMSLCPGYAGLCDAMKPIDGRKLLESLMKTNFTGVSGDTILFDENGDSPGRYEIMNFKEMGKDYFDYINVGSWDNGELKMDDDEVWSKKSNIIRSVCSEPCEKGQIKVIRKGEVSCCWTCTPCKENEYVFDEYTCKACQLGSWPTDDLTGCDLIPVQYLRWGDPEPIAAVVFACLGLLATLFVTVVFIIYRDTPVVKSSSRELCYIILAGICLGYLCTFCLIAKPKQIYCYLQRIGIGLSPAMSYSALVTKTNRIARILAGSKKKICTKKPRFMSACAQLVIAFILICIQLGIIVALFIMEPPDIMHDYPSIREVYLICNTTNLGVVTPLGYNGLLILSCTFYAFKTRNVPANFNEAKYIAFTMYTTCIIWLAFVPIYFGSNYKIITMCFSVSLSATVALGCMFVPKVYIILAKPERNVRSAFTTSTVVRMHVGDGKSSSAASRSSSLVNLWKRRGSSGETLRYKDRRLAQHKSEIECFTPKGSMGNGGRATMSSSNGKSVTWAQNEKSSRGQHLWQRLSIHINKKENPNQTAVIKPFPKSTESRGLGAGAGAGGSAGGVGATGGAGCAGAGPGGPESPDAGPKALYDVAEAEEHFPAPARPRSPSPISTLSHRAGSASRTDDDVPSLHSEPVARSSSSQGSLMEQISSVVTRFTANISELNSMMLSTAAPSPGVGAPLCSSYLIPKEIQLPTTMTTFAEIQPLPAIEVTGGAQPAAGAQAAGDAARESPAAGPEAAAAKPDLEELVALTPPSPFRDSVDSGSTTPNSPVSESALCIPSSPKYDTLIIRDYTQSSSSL
# experiment-summary: positive modulation of mGluR5, calcium based FLIPR assay
# Format: cell-based
# stated-conditions: EC50 of the modulation; HEK 293 cell line expressing human recombinant mGluR5; peak height of Ca fluorescence signal after glutamate at approx. 5% basal stimulation; read-out: EC50
The class of a record is decided solely by its measured EC50; consult low = under 400 nM, medium = from 400 nM up to 1000 nM, high = 1000 nM and over

# molecular-string, class
data = [
    ("Cn1ncc2c1CN(C(=O)Cn1nc(-c3ccc(F)cc3)nc1-c1ccc(F)cc1)C2", "high"),
    ("Cc1cc(-c2nc(-c3ccc(F)c(C)c3)n(CC(=O)N3CCc4nc(N)sc4CC3)n2)ccc1F", "low"),
    ("O=C(Cn1nc(-c2ccc(F)cc2)nc1-c1ccc(F)cc1)N1CCC(c2ncco2)CC1", "low"),
    ("Cc1cc(-c2nc(CC(C)C)n(CC(=O)N3CCc4nc(N)sc4CC3)n2)ccc1F", "low"),
    ("CCc1nc(-c2ccc(F)c(C)c2)nn1CC(=O)N1CCc2nc(N)sc2CC1", "high"),
    ("O=C(Cn1nc(-c2ccc(F)cc2)nc1-c1ccc(F)cc1)N1CCN(c2ccccc2)C(=O)C1", "medium"),
    ("Nc1nc2c(o1)CCN(C(=O)Cn1nc(-c3ccc(F)cc3)nc1-c1ccc(F)cc1)CC2", "medium"),
    ("O=C(Cn1nc(-c2ccc(F)cc2)nc1-c1ccc(F)cc1)N1CCC(Oc2ccccn2)CC1", "medium"),
    ("CC(C)c1noc(C2CCN(C(=O)Cn3nc(-c4ccc(F)cc4)nc3-c3ccc(F)cc3)CC2)n1", "high"),
    ("O=C(Cn1nc(-c2ccc(F)cc2)nc1-c1ccc(F)cc1)N1CCC(c2ncc(-c3ccccc3)s2)CC1", "high"),
    ("COc1cccc2c1CN(C(=O)Cn1nc(-c3ccc(F)cc3)nc1-c1ccc(F)cc1)C2", "low"),
]
